- tgt: Abl(h) (Homo sapiens, UniProt P00519)
- Sequence (P00519 whole entry): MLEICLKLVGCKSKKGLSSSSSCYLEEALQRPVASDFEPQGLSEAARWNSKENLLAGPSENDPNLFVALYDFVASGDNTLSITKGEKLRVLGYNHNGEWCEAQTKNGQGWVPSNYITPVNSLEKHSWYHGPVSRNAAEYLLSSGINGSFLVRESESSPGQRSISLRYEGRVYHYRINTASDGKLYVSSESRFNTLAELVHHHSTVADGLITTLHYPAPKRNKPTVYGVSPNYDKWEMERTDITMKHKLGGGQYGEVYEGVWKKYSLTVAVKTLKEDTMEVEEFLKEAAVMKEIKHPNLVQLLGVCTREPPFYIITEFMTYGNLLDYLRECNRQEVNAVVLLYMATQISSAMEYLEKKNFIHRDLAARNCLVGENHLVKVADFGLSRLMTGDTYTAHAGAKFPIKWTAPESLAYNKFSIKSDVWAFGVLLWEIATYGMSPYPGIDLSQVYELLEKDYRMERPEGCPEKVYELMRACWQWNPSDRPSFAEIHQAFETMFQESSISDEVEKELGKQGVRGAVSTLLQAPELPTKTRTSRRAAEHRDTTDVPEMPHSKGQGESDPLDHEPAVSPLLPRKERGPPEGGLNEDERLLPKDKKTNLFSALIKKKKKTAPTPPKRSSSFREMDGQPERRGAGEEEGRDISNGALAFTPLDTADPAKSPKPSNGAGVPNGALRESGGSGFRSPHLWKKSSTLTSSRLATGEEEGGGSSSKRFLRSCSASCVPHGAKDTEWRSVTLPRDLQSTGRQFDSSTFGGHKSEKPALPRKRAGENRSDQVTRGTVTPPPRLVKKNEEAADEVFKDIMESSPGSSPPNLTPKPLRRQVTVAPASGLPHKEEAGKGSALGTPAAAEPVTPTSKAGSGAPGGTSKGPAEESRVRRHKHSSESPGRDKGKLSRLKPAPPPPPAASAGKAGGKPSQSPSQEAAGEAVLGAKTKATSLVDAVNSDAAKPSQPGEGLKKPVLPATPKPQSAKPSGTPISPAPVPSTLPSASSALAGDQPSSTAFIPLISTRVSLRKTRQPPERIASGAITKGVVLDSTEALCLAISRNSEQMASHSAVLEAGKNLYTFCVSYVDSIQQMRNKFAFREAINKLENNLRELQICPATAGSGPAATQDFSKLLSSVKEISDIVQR
- protocol: KinaseProfiler kinase assay
- Assay type: biochemical
attribute_measured: inhibition at 1 µM (%)
Quick note: give the figure in %, leave out the unit.

Consider the reported inhibition at 1 µM for these compounds:
[[record]]
compound = "C/C=C/c1cc(Nc2cc(N3CCN(S(C)(=O)=O)CC3)nc(Oc3ccc4[nH]c(C)cc4c3F)n2)n[nH]1"
observed_measurement = 110

[[record]]
compound = "Cc1cc2c(F)c(Oc3nc(Nc4cc(C5CC5)[nH]n4)cc(N4CCOC(CN)C4)n3)ccc2[nH]1 (stereo not shown)"
observed_measurement = 110

[[record]]
compound = "C/C=C/c1cc(Nc2cc(N3CCC(OC)C3)nc(Oc3cc(F)c4[nH]c(C)cc4c3F)n2)n[nH]1 (stereo not shown)"
observed_measurement = 111

[[record]]
compound = "C/C=C/c1cc(Nc2cc(N3CCC(O)C3)nc(Oc3ccc4[nH]c(C)cc4c3F)n2)n[nH]1 (stereo not shown)"
observed_measurement = 112

[[record]]
compound = "CC(=O)N1CCN(c2cc(Nc3cc(C4CC4)[nH]n3)nc(Oc3ccc4[nH]c(C)cc4c3F)n2)CC1"
observed_measurement = 107

[[record]]
compound = "C/C=C/c1cc(Nc2cc(N3CCC(O)CC3)nc(Oc3ccc4[nH]c(C)cc4c3F)n2)n[nH]1"
observed_measurement = 112


// next item, inhibition at 1 µM requested
### Prompt May I ask what inhibition at 1 µM has been recorded for CCC1CN(c2cc(Nc3cc(C4CC4)[nH]n3)nc(Oc3ccc4[nH]c(C)cc4c3F)n2)CCN1 (stereo not shown) ?
### Response 108
